# Test system: soluble VEGF121 and VEGF165 isoforms
# ASSAY TEXT: Inhibition of soluble VEGF production in human tumor cell lines (ELISA, EC50)
# Assay type: cell-based
# RUN PARAMETERS: A-375, Melanoma, A375, hypoxic (1% oxygen), 48 hours
# Method: Study Design. […] In these experiments, cultures were established under normoxic conditions (21% oxygen). […] Cells requiring induction of VEGF production were incubated under hypoxic conditions (1% oxygen). At the completion of treatment, the conditioned media were collected and assayed by ELISA (as described in Section 9.1.1.1) for soluble VEGF121 and VEGF165 isoforms; results were calculated as percentage inhibition relative to vehicle treated controls. […]
MEASURE: pEC50
Give bare numbers, as −log10 of the molar value.

[ask] Would you kindly share the measured pEC50 for COc1ccc(C2c3[nH]c4ccc(Cl)cc4c3CCN2C(=O)Oc2ccc(Cl)cc2)cc1 (racemic) [Compound #10] ?
[reply] 7.30

* * *

# ASSAY TEXT: Phase 1 multiple-dose study in healthy volunteers: pharmacokinetics (Table 28)
# Assay type: in vivo, human
# RUN PARAMETERS: both sexes, human, plasma, oral, 0.6 mg/kg, Stage 1, 0.6 mg/kg BID, Day 7, mean; read-out: C24 h
MEASURE: concentration at 24 h (ng/mL)
Numbers only, in ng/mL.

[ask] Would you kindly share the measured concentration at 24 h for COc1ccc(C2c3[nH]c4ccc(Cl)cc4c3CCN2C(=O)Oc2ccc(Cl)cc2)cc1 (racemic) ?
[reply] 540

* * *

# ASSAY TEXT: Phase 1 multiple-dose study in healthy volunteers: pharmacokinetics (Table 28)
# Assay type: in vivo, human
# RUN PARAMETERS: both sexes, human, plasma, oral, 0.6 mg/kg, Stage 1, 0.6 mg/kg BID, Day 1, mean; read-out: C24 h
MEASURE: concentration at 24 h

[ask] Would you kindly share the measured concentration at 24 h for COc1ccc(C2c3[nH]c4ccc(Cl)cc4c3CCN2C(=O)Oc2ccc(Cl)cc2)cc1 (racemic) [Compound #10] ?
[reply] 260 ng/mL

* * *

# Tested on: hypoxia-inducible endogenous VEGF expression
# ASSAY TEXT: Hypoxia-inducible endogenous VEGF expression ELISA in HeLa cells, dose-response EC50 (Table 3)
# Format: cell-based, human
# RUN PARAMETERS: Homo sapiens; HeLa cells, hypoxic conditions (1% O2), VEGF ELISA of conditioned media; read-out: ELISA EC50
pEC50: −log10 of the molar value.
Please respond with reported pEC50 for every item in the list.

>  <COMPOUND>
O=C(Oc1ccc(Cl)cc1)N1CCc2c([nH]c3ccc(Cl)cc23)C1c1ccc(OCCNc2ncncn2)cc1 (centres unmarked)

>  <pEC50>
> 8.10

$$$$
>  <COMPOUND>
CS(=O)(=O)CCCOc1ccc(C2c3[nH]c4ccc(Cl)cc4c3CCN2C(=O)Oc2ccc(Cl)cc2)cc1 (centres unmarked)

>  <pEC50>
> 8.10

$$$$
>  <COMPOUND>
Cc1nccnc1Oc1ccc([C@H]2c3[nH]c4ccc(Cl)cc4c3CCN2C(=O)Oc2ccc(Cl)cc2)cc1

>  <pEC50>
> 8.10

$$$$
>  <COMPOUND>
CC(C)S(=O)(=O)NCC(O)COc1ccc(C2c3[nH]c4ccc(Cl)cc4c3CCN2C(=O)Oc2ccc(F)cc2)cc1 (centres unmarked)

>  <pEC50>
6.00 to 6.70

$$$$
>  <COMPOUND>
CCCOC(=O)NCC(O)CCOc1ccc([C@H]2c3[nH]c4ccc(Cl)cc4c3CCN2C(=O)Oc2ccc(C)cc2)cc1 (some centres unmarked)

>  <pEC50>
> 8.10

$$$$

Items follow; give pEC50 for each.
1. O=C(Oc1ccc(F)cc1)N1CCc2c([nH]c3ccc(Cl)cc23)C1c1ccc(OC2CCOCC2)cc1 (centres unmarked)
2. [H]/N=c1\sccn1CCOc1ccc(C2c3[nH]c4ccc(Cl)cc4c3CCN2C(=O)Oc2ccc(Cl)cc2)cc1 (centres unmarked)

[reply]
> 8.10
> 8.10

Items follow; give pEC50 for each.
1. CCOC(=O)NCC(O)COc1ccc(C2c3[nH]c4ccc(Cl)cc4c3CCN2C(=O)Oc2ccc(Cl)cc2)cc1 (centres unmarked)
2. CC(CO)(CO)COc1ccc(C2c3[nH]c4ccc(Br)cc4c3CCN2C(=O)Oc2ccc(F)cc2)cc1 (centres unmarked)
3. CCSCCCOc1ccc(C2c3[nH]c4ccc(Cl)cc4c3CCN2C(=O)Oc2ccc(Cl)cc2)cc1 (centres unmarked)
4. CCS(=O)(=O)NCC(O)COc1ccc(C2c3[nH]c4ccc(Cl)cc4c3CCN2C(=O)Oc2ccc(Cl)cc2)cc1 (centres unmarked)

[reply]
["7.40 to 8.10", "> 8.10", "> 8.10", "7.40 to 8.10"]

Items follow; give pEC50 for each.
1. CC(C)S(=O)(=O)NCC(O)COc1ccc(C2c3[nH]c4ccc(Cl)cc4c3CCN2C(=O)Oc2ccc(Cl)cc2)cc1 (centres unmarked)
2. CCC(CO)(CO)COc1ccc([C@H]2c3[nH]c4ccc(Cl)cc4c3CCN2C(=O)Oc2ccc(F)cc2)cc1
3. O=C(Oc1ccc(F)cc1)N1CCc2c([nH]c3ccc(Br)cc23)C1c1ccc(OCC[C@H](O)CO)cc1 (some centres unmarked)

[reply]
6.70 to 7.40
> 8.10
> 8.10

* * *

Please respond with reported EC50 for every item in the list.
# Test system: hypoxia-inducible endogenous VEGF expression
# ASSAY TEXT: Hypoxia-inducible endogenous VEGF expression ELISA in HeLa cells, dose-response EC50 (Table 3)
# Type: cell-based, human
# RUN PARAMETERS: Homo sapiens, HeLa, read-out: ELISA EC50 μM

>  <MOLECULE>
O=C(Oc1ccc(F)cc1)N1CCc2c([nH]c3ccc(Cl)cc23)C1c1ccc(OCCCCN2CCOCC2)cc1 (centres unmarked)

>  <EC50>
< 0.008 µM

$$$$
>  <MOLECULE>
O=C(Oc1ccc(Cl)cc1)N1CCc2c([nH]c3ccc(Cl)cc23)C1c1ccc(OCCCN2CCOCC2)cc1 (centres unmarked)

>  <EC50>
< 0.008 µM

$$$$
>  <MOLECULE>
O=C(Oc1ccc(F)cc1)N1CCc2c([nH]c3ccc(Cl)cc23)C1c1ccc(OCCCCCCN2CCOCC2)cc1 (centres unmarked)

>  <EC50>
< 0.008 µM

$$$$
>  <MOLECULE>
CN(C)CC(=O)Nc1ccc(C2c3[nH]c4ccc(Cl)cc4c3CCN2C(=O)Oc2ccc(Cl)cc2)cc1 (centres unmarked)

>  <EC50>
0.04 to 0.2 µM

$$$$

Items follow; give EC50 for each.
1. O=C(Oc1ccc(F)cc1)N1CCc2c([nH]c3ccc(Cl)cc23)C1c1ccc(OCCCCN2CCCC2)cc1 (centres unmarked)
2. COc1ccc(OC(=O)N2CCc3c([nH]c4ccc(Cl)cc34)C2c2ccc(OCCCN3CCN(C)CC3)cc2)cc1 (centres unmarked)
3. O=C(Oc1ccc(Cl)cc1)N1CCc2c([nH]c3ccc(Cl)cc23)[C@@H]1c1ccc(OCCCNC(CO)(CO)CO)cc1
4. O=C(Oc1ccc(Cl)cc1)N1CCc2c([nH]c3ccc(Cl)cc23)C1c1ccc(OCCCCCCN2CCCC2)cc1 (centres unmarked)
5. CN1CCN(Cc2cnc(Oc3ccc([C@H]4c5[nH]c6ccc(Cl)cc6c5CCN4C(=O)Oc4ccc(Cl)cc4)cc3)s2)CC1
6. CCN1CCN(C(=O)COc2ccc(C3c4[nH]c5ccc(Cl)cc5c4CCN3C(=O)Oc3ccc(OC)cc3)cc2)CC1 (centres unmarked)

[reply]
< 0.008 µM
0.008 to 0.04 µM
0.04 to 0.2 µM
< 0.008 µM
< 0.008 µM
0.04 to 0.2 µM

Items follow; give EC50 for each.
1. CN1CCN(CCCOc2ccc(C3c4[nH]c5ccc(Cl)cc5c4CCN3C(=O)Oc3ccc(Cl)cc3)cc2)CC1 (centres unmarked)
2. O=C(Oc1ccc(Cl)cc1)N1CCc2c([nH]c3ccc(Cl)cc23)C1c1ccc(OCCCN2CCCCC2)cc1 (centres unmarked)
3. CN1CCC(Oc2ccc([C@H]3c4[nH]c5ccc(Cl)cc5c4CCN3C(=O)Oc3ccc(Cl)cc3)cc2)CC1

[reply]
1. 0.008 to 0.04 µM
2. < 0.008 µM
3. < 0.008 µM

[ask] Would you kindly share the measured EC50 for CN1CCCC(COc2ccc(C3c4[nH]c5ccc(Cl)cc5c4CCN3C(=O)Oc3ccccc3Cl)cc2)C1 (centres unmarked) ?
[reply] 0.04 to 0.2 µM

* * *

# Tested on: soluble VEGF121 and VEGF165 isoforms
# ASSAY TEXT: Inhibition of soluble VEGF production in human tumor cell lines (ELISA, EC50)
# Type: cell-based
# RUN PARAMETERS: Colorectal, HCT-116, 48 hours
MEASURE: EC50 (nM)
One number for each entry, in nM.

[ask] Would you kindly share the measured EC50 for COc1ccc(C2c3[nH]c4ccc(Cl)cc4c3CCN2C(=O)Oc2ccc(Cl)cc2)cc1 (racemic) [Compound #10] ?
[reply] 10
